Overview of recorded Cell Index MEC for various compounds
# Tested on: hiPSC-CM (iCell Cardiomyocytes^2)
# Protocol: RTCA CardioECR assessment (impedance and electrophysiology parameters)
# Condition details: human, 72 h
// return numeric value only (unit: µM, not printed)

CC(=O)[C@]1(O)Cc2c(O)c3c(c(O)c2[C@@H](O[C@H]2C[C@H](N)[C@H](O)[C@H](C)O2)C1)C(=O)c1ccccc1C3=O    0.1
CC[C@]1(O)C[C@H]2CN(CCc3c([nH]c4ccccc34)[C@@](C(=O)OC)(c3cc4c(cc3OC)N(C=O)[C@H]3[C@@](O)(C(=O)OC)[C@H](OC(C)=O)[C@]5(CC)C=CCN6CC[C@]43[C@@H]65)C2)C1    0.003
CCC1=C[C@@H]2CN(C1)Cc1c([nH]c3ccccc13)[C@@](C(=O)OC)(c1cc3c(cc1OC)N(C)[C@H]1[C@@](O)(C(=O)OC)[C@H](OC(C)=O)[C@]4(CC)C=CCN5CC[C@]31[C@@H]54)C2    0.1

Consider the additional compound presented here.
Return the recorded Cell Index MEC value; entry: `Cc1nc(Nc2ncc(C(=O)Nc3c(C)cccc3Cl)s2)cc(N2CCN(CCO)CC2)n1` 1

* * *

Overview of recorded hsa-miR-29a-5p fold change, intracellular for various compounds
# System: hiPSC-CM (iCell Cardiomyocytes^2)
# Protocol: Intracellular miRNA expression by RT-qPCR in hiPSC-CM pellets after 72-hour treatment
# Condition details: 0.3 µM, 72 h
Structures can show the parent of a compound that is named as a salt.

Before answering, review these 3 worked examples.
CC(C)C[C@H](NC(=O)[C@H](CCc1ccccc1)NC(=O)CN1CCOCC1)C(=O)N[C@@H](Cc1ccccc1)C(=O)N[C@@H](CC(C)C)C(=O)[C@@]1(C)CO1 [Carfilzomib]    0.4
CC[C@]1(O)C[C@H]2CN(CCc3c([nH]c4ccccc34)[C@@](C(=O)OC)(c3cc4c(cc3OC)N(C=O)[C@H]3[C@@](O)(C(=O)OC)[C@H](OC(C)=O)[C@]5(CC)C=CCN6CC[C@]43[C@@H]65)C2)C1 [Vincristine]    1.0
CC(C)C[C@H](NC(=O)CNC(=O)c1cc(Cl)ccc1Cl)B1OC(=O)C(CC(=O)O)(CC(=O)O)O1 [Ixazomib Citrate]    1.7

Consider the additional compound presented here.
Return the recorded hsa-miR-29a-5p fold change, intracellular value; entry: Cc1cn(-c2cc(NC(=O)c3ccc(C)c(Nc4nccc(-c5cccnc5)n4)c3)cc(C(F)(F)F)c2)cn1 [Nilotinib] 0.2

* * *

# System: hiPSC-CM (iCell Cardiomyocytes^2)
# Protocol: Intracellular miRNA expression by RT-qPCR in hiPSC-CM pellets after 72-hour treatment
# Condition details: 0.3 µM, 72 h
Where a name gives a salt, the structure may show the parent alone.
Overview of recorded hsa-miR-146b-5p fold change, intracellular for various compounds
The answer should be written as a number, with no unit following it.

CC[C@]1(O)C[C@H]2CN(CCc3c([nH]c4ccccc34)[C@@](C(=O)OC)(c3cc4c(cc3OC)N(C=O)[C@H]3[C@@](O)(C(=O)OC)[C@H](OC(C)=O)[C@]5(CC)C=CCN6CC[C@]43[C@@H]65)C2)C1    0.3
Cc1nc(Nc2ncc(C(=O)Nc3c(C)cccc3Cl)s2)cc(N2CCN(CCO)CC2)n1    0.8
Cc1cn(-c2cc(NC(=O)c3ccc(C)c(Nc4nccc(-c5cccnc5)n4)c3)cc(C(F)(F)F)c2)cn1    0.2
CC(C)C[C@H](NC(=O)CNC(=O)c1cc(Cl)ccc1Cl)B1OC(=O)C(CC(=O)O)(CC(=O)O)O1 [Ixazomib Citrate]    7.1

Consider the additional compound presented here.
Return the recorded hsa-miR-146b-5p fold change, intracellular value; entry: `CC(C)C[C@H](NC(=O)[C@H](CCc1ccccc1)NC(=O)CN1CCOCC1)C(=O)N[C@@H](Cc1ccccc1)C(=O)N[C@@H](CC(C)C)C(=O)[C@@]1(C)CO1` 0.3

* * *

# System: hiPSC-CM (iCell Cardiomyocytes^2)
# Protocol: Intracellular miRNA expression by RT-qPCR in hiPSC-CM pellets after 72-hour treatment
# Condition details: Homo sapiens, 72 h, read-out: hsa-miR-7-5p fold change
# Procedure: Culture media change was performed every 2 days. Total RNA was extracted from hiPSC-CM using the miRNeasy 96 Kit (Qiagen, Hilden, Germany) following the manufacturer’s recommendations. After the extraction, RNA purity was assessed by NanoDrop™ 8000 Spectrophotometer (Thermo Fisher Scientific Inc.). 5–10 ng/μL of RNA per sample were reverse transcribed and pre-amplified by using the TaqMan™ Advanced miRNA cDNA Synthesis Kit (Thermo Fisher Scientific Inc.). […]
Overview of recorded fold induction at 0.3 µM for various molecules
The answer should be written as a number, with no unit following it.

CC[C@]1(O)C[C@H]2CN(CCc3c([nH]c4ccccc34)[C@@](C(=O)OC)(c3cc4c(cc3OC)N(C=O)[C@H]3[C@@](O)(C(=O)OC)[C@H](OC(C)=O)[C@]5(CC)C=CCN6CC[C@]43[C@@H]65)C2)C1    1

Return the recorded fold induction at 0.3 µM value; entry: `CC(=O)[C@]1(O)Cc2c(O)c3c(c(O)c2[C@@H](O[C@H]2C[C@H](N)[C@H](O)[C@H](C)O2)C1)C(=O)c1ccccc1C3=O` 5.8

Return the recorded fold induction at 0.3 µM value; entry: COc1nc(N)nc2c1ncn2[C@@H]1O[C@H](COP(=O)(N[C@@H](C)C(=O)OCC(C)(C)C)Oc2cccc3ccccc23)[C@@H](O)[C@@]1(C)O (stereo partly drawn) 1

Return the recorded fold induction at 0.3 µM value; entry: CCCN1C[C@H](CSC)C[C@@H]2c3cccc4[nH]cc(c34)C[C@H]21 [Pergolide] 1

Return the recorded fold induction at 0.3 µM value; entry: `CCC1=C[C@@H]2CN(C1)Cc1c([nH]c3ccccc13)[C@@](C(=O)OC)(c1cc3c(cc1OC)N(C)[C@H]1[C@@](O)(C(=O)OC)[C@H](OC(C)=O)[C@]4(CC)C=CCN5CC[C@]31[C@@H]54)C2` 1.4

* * *

# Test system: hiPSC-CM (iCell Cardiomyocytes^2)
# Protocol: Intracellular miRNA expression by RT-qPCR in hiPSC-CM pellets after 72-hour treatment
So basically: miRNAs hiPSC-CM pellet, MEC overall at 0.1 µM or higher? That is 1. Lower than 0.1 µM? That is 0.

Past entries and their recorded results:
COc1cccc2c1C(=O)c1c(O)c3c(c(O)c1C2=O)C[C@@](O)(C(=O)CO)C[C@@H]3O[C@H]1C[C@H](N)[C@@H](O)[C@H](C)O1 [Epirubicin]    1
CCCN1C[C@H](CSC)C[C@@H]2c3cccc4[nH]cc(c34)C[C@H]21 [Pergolide]    1
CC[C@]1(O)C[C@@H]2CN(CCc3c([nH]c4ccccc34)[C@@](C(=O)OC)(c3cc4c(cc3OC)N(C)[C@H]3[C@@](O)(C(=O)OC)[C@H](OC(C)=O)[C@]5(CC)C=CCN6CC[C@]43[C@@H]65)C2)C1    0
C#Cc1cccc(Nc2ncnc3cc(OCCOC)c(OCCOC)cc23)c1    1
CC(C)C[C@H](NC(=O)[C@H](Cc1ccccc1)NC(=O)c1cnccn1)B(O)O    0

Consider the additional compound presented here.
Decide: miRNAs hiPSC-CM pellet, MEC overall of `CC(=O)[C@]1(O)Cc2c(O)c3c(c(O)c2[C@@H](O[C@H]2C[C@H](N)[C@H](O)[C@H](C)O2)C1)C(=O)c1ccccc1C3=O` >= 0.1 µM? 1

* * *

# Tested on: hiPSC-CM (iCell Cardiomyocytes^2)
# Protocol: RTCA CardioECR assessment (impedance and electrophysiology parameters)
# Condition details: human, 72 h
Overview of recorded Spike Amplitude (SA) MEC for various molecules
Remember to quote the unit after the number.

Before answering, review these 5 worked examples.
CC(=O)O[C@H]1C(=O)[C@@]2(C)[C@H]([C@H](OC(=O)c3ccccc3)[C@]3(O)C[C@H](OC(=O)[C@H](O)[C@@H](NC(=O)c4ccccc4)c4ccccc4)C(C)=C1C3(C)C)[C@]1(OC(C)=O)CO[C@@H]1C[C@@H]2O [Paclitaxel]    3 µM
CC(=O)[C@]1(O)Cc2c(O)c3c(c(O)c2[C@@H](O[C@H]2C[C@H](N)[C@H](O)[C@H](C)O2)C1)C(=O)c1ccccc1C3=O [Idarubicin]    0.1 µM
COc1nc(N)nc2c1ncn2[C@@H]1O[C@H](COP(=O)(N[C@@H](C)C(=O)OCC(C)(C)C)Oc2cccc3ccccc23)[C@@H](O)[C@@]1(C)O (stereo partly drawn) [BMS-986094]    0.16 µM
Cc1cn(-c2cc(NC(=O)c3ccc(C)c(Nc4nccc(-c5cccnc5)n4)c3)cc(C(F)(F)F)c2)cn1 [Nilotinib]    0.01 µM
Cc1ccc(NC(=O)c2ccc(CN3CCN(C)CC3)cc2)cc1Nc1nccc(-c2cccnc2)n1 [Imatinib]    0.3 µM

Give Spike Amplitude (SA) MEC for CS(=O)(=O)CCNCc1ccc(-c2ccc3ncnc(Nc4ccc(OCc5cccc(F)c5)c(Cl)c4)c3c2)o1 [Lapatinib] tested on hiPSC-CM (iCell Cardiomyocytes^2). 0.1 µM
